- subject-of-test: Aβ42 (Homo sapiens, UniProt P05067)
- Sequence (P05067 672-713): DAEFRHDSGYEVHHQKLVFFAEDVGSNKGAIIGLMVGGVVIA
- measurement-protocol: Th-T (thioflavin-T) assay of Aβ42 aggregation
- Assay type: biochemical
- study-conditions: reading M108; compound at 10 (head suffix _10)
endpoint-label: Th-T fluorescence, mean of three wells (Fig. 7a)
# answer = number (no unit)

Can you share its Th-T fluorescence, mean of three wells (Fig. 7a)? I mean this compound: C=C1CC[C@@H]2[C@](C)(CC[C@H]3O[C@H](C=C(C)C)C[C@@]23C)[C@@H]1Cc1c(OC)oc(CO)c(C)c1=O [Compound 20] 3.266

What value of Th-T fluorescence, mean of three wells (Fig. 7a) has been reported for the following compound? C=C1CCC2C(C)(CCC=C(C)C)C(O)CCC2(C)C1Cc1c(OC)oc(CO)c(C)c1=O (centres unmarked) [Compound 12] 2.748

Fill in the blank: the reported Th-T fluorescence, mean of three wells (Fig. 7a) of C=C1CCC2C(C)(CCC=C(C)C)C(O)CCC2(C)C1Cc1c(OC)oc(CO)c(C(=O)OC)c1=O (centres unmarked) [Compound 13] is ____. 1.544

Given C=C1CC[C@@H]2[C@](C)(CC[C@H]3O[C@H](C=C(C)C)C[C@@]23C)[C@@H]1Cc1c(OC)oc(CO)c(C(=O)OC)c1=O [Compound 21] , state its recorded Th-T fluorescence, mean of three wells (Fig. 7a). 1.643

What measured Th-T fluorescence, mean of three wells (Fig. 7a) goes with C=C1CCC2C(C)(CCC=C(C)C)C(O)CCC2(C)C1Cc1c(OC)oc(C)c(C(=O)OC)c1=O (centres unmarked) [Compound 14] ? 2.848

====

- subject-of-test: UniProt P05067
- measurement-protocol: Th-T (thioflavin-T) assay of Aβ42 aggregation
- Format: biochemical
- study-conditions: reading M125; compound at 50 (head suffix _50)
Returns one of Criterion met or Criterion not met; Criterion met when Th-T fluorescence, mean of three wells (Fig. 7a) is >= 0.5.

Textbook exercise: given the entry C=C1CCC2C(C)(CCC=C(C)C)C(O)CCC2(C)C1Cc1c(OC)oc(CO)c(C(=O)OC)c1=O (centres unmarked) , state whether its Th-T fluorescence, mean of three wells (Fig. 7a) is greater than or equal to 0.5. Criterion not met

Tell me whether Th-T fluorescence, mean of three wells (Fig. 7a) is at least 0.5 here: C=C1CC[C@@H]2[C@](C)(CC[C@H]3O[C@H](C=C(C)C)C[C@@]23C)[C@@H]1Cc1c(OC)oc(CO)c(C)c1=O Criterion met

Exam item: decide whether the reported Th-T fluorescence, mean of three wells (Fig. 7a) for C=C1CCC2C(C)(CCC=C(C)C)C(O)CCC2(C)C1Cc1c(OC)oc(CO)c(C)c1=O (centres unmarked) is at least 0.5. Criterion met

Th-T fluorescence, mean of three wells (Fig. 7a) >= 0.5 for C=C1CCC2C(C)(CCC=C(C)C)C(O)CCC2(C)C1Cc1c(OC)oc(C)c(C(=O)OC)c1=O (centres unmarked) ? Criterion met

====

- subject-of-test: UniProt:P05067
- measurement-protocol: Th-T (thioflavin-T) assay of Aβ42 aggregation
- Format: biochemical
- study-conditions: head suffix _20 (concentration 20); reading M73
endpoint-label: Th-T fluorescence of Aβ42 (sheet Fig. 7a), mean of three wells
Reply with just the number.

Need Th-T fluorescence of Aβ42 (sheet Fig. 7a), mean of three wells, item C=C1CC[C@@H]2[C@](C)(CC[C@H]3O[C@H](C=C(C)C)C[C@@]23C)[C@@H]1Cc1c(OC)oc(CO)c(C)c1=O [Compound 20] 3.421

Given the entry C=C1CCC2C(C)(CCC=C(C)C)C(O)CCC2(C)C1Cc1c(OC)oc(CO)c(C(=O)OC)c1=O (centres unmarked) [Compound 13] , report its measured Th-T fluorescence of Aβ42 (sheet Fig. 7a), mean of three wells. 1.063

Look at this molecule and give its reported Th-T fluorescence of Aβ42 (sheet Fig. 7a), mean of three wells. C=C1CCC2C(C)(CCC=C(C)C)C(O)CCC2(C)C1Cc1c(OC)oc(CO)c(C)c1=O (centres unmarked) [Compound 12] 2.112

Given the molecule C=C1CC[C@@H]2[C@](C)(CC[C@H]3O[C@H](C=C(C)C)C[C@@]23C)[C@@H]1Cc1c(OC)oc(CO)c(C(=O)OC)c1=O [Compound 21] , what is its reported Th-T fluorescence of Aβ42 (sheet Fig. 7a), mean of three wells? 0.2974

Given C=C1CCC2C(C)(CCC=C(C)C)C(O)CCC2(C)C1Cc1c(OC)oc(C)c(C(=O)OC)c1=O (centres unmarked) [Compound 14] , state its recorded Th-T fluorescence of Aβ42 (sheet Fig. 7a), mean of three wells. 1.972
